target: PI3K-γ (Homo sapiens, UniProt P48736); experiment: PI3K-gamma fluorescence polarization assay; conditions: read-out: IC50 PI3Kγ; listed as 505
Sequence (P48736 whole entry, species assumed): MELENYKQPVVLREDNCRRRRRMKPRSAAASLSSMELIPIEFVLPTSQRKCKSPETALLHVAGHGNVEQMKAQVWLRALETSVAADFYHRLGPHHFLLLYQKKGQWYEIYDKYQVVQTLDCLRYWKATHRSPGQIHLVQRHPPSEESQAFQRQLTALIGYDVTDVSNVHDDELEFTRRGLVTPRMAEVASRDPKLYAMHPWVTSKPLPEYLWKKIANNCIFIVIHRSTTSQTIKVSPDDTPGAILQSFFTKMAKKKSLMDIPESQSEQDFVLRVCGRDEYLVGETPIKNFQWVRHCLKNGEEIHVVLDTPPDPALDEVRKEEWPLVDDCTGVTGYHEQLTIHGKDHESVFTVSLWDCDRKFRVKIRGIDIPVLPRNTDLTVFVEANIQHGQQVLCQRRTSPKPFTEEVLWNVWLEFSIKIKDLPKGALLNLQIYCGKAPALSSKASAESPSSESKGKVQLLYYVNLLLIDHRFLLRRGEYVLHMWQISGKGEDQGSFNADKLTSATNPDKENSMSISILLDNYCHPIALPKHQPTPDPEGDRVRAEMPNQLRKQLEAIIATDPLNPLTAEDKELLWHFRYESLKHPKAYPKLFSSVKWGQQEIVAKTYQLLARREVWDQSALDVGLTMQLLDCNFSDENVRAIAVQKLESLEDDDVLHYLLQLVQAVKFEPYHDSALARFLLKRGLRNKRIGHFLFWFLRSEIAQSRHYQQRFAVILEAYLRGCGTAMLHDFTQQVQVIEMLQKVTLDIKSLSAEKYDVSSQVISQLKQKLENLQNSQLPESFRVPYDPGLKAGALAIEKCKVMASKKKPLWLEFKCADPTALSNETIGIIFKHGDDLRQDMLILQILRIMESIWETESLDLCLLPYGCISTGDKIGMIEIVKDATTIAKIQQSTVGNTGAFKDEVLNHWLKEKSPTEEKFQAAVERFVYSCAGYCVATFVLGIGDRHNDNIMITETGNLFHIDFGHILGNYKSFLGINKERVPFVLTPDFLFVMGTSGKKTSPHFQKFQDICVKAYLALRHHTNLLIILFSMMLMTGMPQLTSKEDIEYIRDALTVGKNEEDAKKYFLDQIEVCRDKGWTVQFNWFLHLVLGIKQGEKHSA
measuredAttribute: pIC50
Numbers only, as −log10 of the molar value.

Query: pIC50; subject: `CN(C)C1CCN(C(=O)c2ccc(NC(=O)Nc3ccc(-c4nc(C5=CCOCC5)nc(N5CCOCC5)n4)cc3)cc2)CC1`
8.30

* * *

biological target: PI3K-γ (Homo sapiens); test: PI3K-gamma fluorescence polarization assay; conditions: read-out: IC50 PI3Kγ; listed as 506
measuredAttribute: IC50 (nM)
Numbers only, in nM.

Query: IC50; subject: `CN(C)CCN(C)C(=O)c1ccc(NC(=O)Nc2ccc(-c3nc(C4=CCOCC4)nc(N4CCOCC4)n3)cc2)cc1`
7

* * *

biological target: PI3K-α (Homo sapiens, UniProt P42336); assay: PI3K-alpha fluorescence polarization assay; details: read-out: IC50 PI3Kα; listed as 677
Sequence (P42336 whole entry, species assumed): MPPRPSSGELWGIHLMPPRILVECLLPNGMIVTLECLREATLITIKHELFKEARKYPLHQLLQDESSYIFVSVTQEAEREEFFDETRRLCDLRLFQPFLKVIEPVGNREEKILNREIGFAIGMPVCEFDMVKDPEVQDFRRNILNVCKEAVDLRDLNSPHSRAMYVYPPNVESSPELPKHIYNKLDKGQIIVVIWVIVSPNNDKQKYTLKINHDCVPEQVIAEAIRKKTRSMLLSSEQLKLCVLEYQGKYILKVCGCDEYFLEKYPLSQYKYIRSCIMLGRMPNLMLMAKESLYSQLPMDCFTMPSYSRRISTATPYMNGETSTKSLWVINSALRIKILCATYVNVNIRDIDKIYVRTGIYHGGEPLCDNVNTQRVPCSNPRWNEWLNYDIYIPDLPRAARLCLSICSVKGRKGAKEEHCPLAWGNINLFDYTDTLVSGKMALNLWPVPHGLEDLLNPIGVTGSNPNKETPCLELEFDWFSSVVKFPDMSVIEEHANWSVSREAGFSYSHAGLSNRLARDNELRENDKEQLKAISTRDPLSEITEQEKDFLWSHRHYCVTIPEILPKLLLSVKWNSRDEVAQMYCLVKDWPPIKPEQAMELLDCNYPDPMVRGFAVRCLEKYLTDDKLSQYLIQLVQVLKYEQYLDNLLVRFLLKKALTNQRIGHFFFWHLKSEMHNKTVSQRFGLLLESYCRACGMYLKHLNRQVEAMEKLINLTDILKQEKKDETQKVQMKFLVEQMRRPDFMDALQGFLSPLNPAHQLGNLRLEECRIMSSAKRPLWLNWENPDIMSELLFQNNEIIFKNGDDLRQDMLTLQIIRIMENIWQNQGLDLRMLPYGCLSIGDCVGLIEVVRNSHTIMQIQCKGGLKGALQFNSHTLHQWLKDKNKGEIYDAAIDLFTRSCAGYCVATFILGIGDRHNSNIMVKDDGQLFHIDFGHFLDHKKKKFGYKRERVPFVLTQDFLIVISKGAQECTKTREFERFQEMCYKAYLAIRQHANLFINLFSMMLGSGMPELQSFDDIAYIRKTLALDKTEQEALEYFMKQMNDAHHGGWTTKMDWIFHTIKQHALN
Sequence (P27986 whole entry partner, species assumed): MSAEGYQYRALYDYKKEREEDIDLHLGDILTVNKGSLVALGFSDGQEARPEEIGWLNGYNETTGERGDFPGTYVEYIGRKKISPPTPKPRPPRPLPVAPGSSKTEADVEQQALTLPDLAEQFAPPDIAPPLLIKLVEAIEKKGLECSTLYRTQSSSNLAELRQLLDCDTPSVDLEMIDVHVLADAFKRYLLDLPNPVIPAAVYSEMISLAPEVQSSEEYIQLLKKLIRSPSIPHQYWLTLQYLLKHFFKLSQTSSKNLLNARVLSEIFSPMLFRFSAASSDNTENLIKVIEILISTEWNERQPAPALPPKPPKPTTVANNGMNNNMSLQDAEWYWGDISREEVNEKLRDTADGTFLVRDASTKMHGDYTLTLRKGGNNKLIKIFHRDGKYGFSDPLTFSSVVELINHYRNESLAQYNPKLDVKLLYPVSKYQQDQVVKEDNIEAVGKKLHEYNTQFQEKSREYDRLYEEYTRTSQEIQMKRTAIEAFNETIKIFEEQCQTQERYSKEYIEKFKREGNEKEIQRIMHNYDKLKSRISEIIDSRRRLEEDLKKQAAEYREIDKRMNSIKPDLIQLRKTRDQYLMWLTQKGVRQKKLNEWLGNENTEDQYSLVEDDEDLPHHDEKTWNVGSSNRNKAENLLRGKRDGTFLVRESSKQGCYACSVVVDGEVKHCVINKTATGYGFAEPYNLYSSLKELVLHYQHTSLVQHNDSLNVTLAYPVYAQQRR
measuredAttribute: pIC50
One number for each entry, as −log10 of the molar value.

Query: pIC50; subject: `N#Cc1ccc(NC(=O)Nc2ccc(-c3nc(N4CCOCC4)nc(N4C5CCC4COC5)n3)cc2)cc1`
7.06

* * *

target: PI3K-α (Homo sapiens); assay: PI3K-alpha fluorescence polarization assay; settings: read-out: IC50 PI3Kα
measuredAttribute: pIC50
Give bare numbers, as −log10 of the molar value.

| substanceSmiles | pIC50 |
| --- | --- |
| CCc1nc(-c2ccc(NC(=O)Nc3ccc(C(=O)N4CCN(C)CC4)cc3)cc2)nc(N2CCOCC2)n1 | 8.52 |
| CNCCN(C)C(=O)c1ccc(NC(=O)Nc2ccc(-c3nc(OC)nc(N4CCOCC4)n3)cc2)cc1 | 9.00 |
| CC(C)(C)OC(=O)N1CCN(c2nc(-c3ccc(NC(=O)Nc4ccncc4)cc3)nc(N3CC4CCC(C3)O4)n2)CC1 | 6.41 |

Next compound, please.
Query: pIC50; subject: `O=C(Nc1ccc(-c2nc(N3CCOCC3)nc(N3C4CCC3COC4)n2)cc1)Nc1ccc(Cl)nc1`
7.23

* * *

molecular target: PI3K-α (Homo sapiens); test: PI3K-alpha fluorescence polarization assay; conditions: read-out: IC50 PI3Kα; listed as 736
measuredAttribute: IC50 (nM)
Answers are plain numbers, in nM.

Query: IC50; subject: O=C(Nc1ccncc1)Nc1ccc(-c2nc(CCCO)nc(N3CCOCC3)n2)cc1 [Example 279]
9.5

* * *

molecular target: PI3K-γ (Homo sapiens); test: PI3K-gamma fluorescence polarization assay; conditions: read-out: IC50 PI3Kγ; listed as 740
measuredAttribute: pIC50
Answers are plain numbers, as −log10 of the molar value.

Query: pIC50; subject: O=C(Nc1ccncc1)Nc1ccc(-c2nc(N3CCOCC3)nc(N3CC4COC(C3)O4)n2)cc1 (stereo not shown)
7.46

* * *

target: PI3K-α (Homo sapiens, UniProt P42336); assay: PI3K-alpha fluorescence polarization assay; details: read-out: IC50 PI3Kα
measuredAttribute: IC50 (µM)
Give bare numbers, in µM.

Below are worked cases with known answers.
| compound | unitAnnotation | value |
| --- | --- | --- |
| O=C(Nc1ccncc1)Nc1ccc(-c2nc(Cl)nc(N3CC4CCC(C3)O4)n2)cc1 | µM | 0.358 |
| CC(O)c1ccc(NC(=O)Nc2ccc(-c3nc(N4CCOCC4)nc(N4C[C@H]5C[C@@H]4CN5C(=O)OC(C)(C)C)n3)cc2)cc1 (stereo partly shown) | µM | 0.035 |
| O=C(Nc1ccc(CCO)cc1)Nc1ccc(-c2nc(N3CCOCC3)nc(N3C4CCC3COC4)n2)cc1 | µM | 0.014 |

Next compound, please.
Query: IC50; subject: `CC(C)Oc1nc(-c2ccc(NC(=O)Nc3ccncc3)cc2)nc(N2CCOCC2)n1`
0.005
